- measuredOn: CIB1 and αIIb interaction (CIB1-GST : F-αIIb peptide) (Homo sapiens, UniProt Q99828)
- Construct: made in house; host or cells: BL-21 plus RIL cells (E. coli)
- Sequence (Q99828 whole entry): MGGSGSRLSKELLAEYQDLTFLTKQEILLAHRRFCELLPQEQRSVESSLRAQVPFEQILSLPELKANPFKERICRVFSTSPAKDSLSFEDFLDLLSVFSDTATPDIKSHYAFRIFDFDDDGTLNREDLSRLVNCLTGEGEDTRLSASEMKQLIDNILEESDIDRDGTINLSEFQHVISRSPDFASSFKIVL
- protocolSummary: FP assay, 1536-well qHTS format (primary and confirmatory screen)
- Format: binding
- measurementParameters: qHTS primary screen hits, Table S2; read-out: IC50
Give measured IC50 for each item. Keep answers brief.
Give just the number in µM; leave the unit off.

Which IC50 is reported for this molecule? Cc1cc(C2N=C(Nc3nc4ccccc4o3)NC3=C2C(=O)CCC3)n[nH]1.O=C(O)C(F)(F)F (stereo not shown) 56.2

// IC50 lookup, key: Cc1cc2nc3c(=O)[nH]c(=O)nc-3n(C[C@H](O)[C@H](O)[C@H](O)CO)c2cc1C 4

// lookup IC50 for C[C@H](Cc1ccc(O)c(O)c1)[C@@H](C)Cc1ccc(O)c(O)c1 27.1

Quick check: IC50 of CC1CCCC[C@H]2C(=O)C=C[C@H](O)[C@@H]2CC(=O)O1 (stereo partly shown) ? 28.2

###

- measuredOn: CIB1 and αIIb interaction (CIB1-GST : F-αIIb peptide) (Homo sapiens, UniProt Q99828)
- Construct: made in house; host or cells: BL-21 plus RIL cells (E. coli)
- protocolSummary: FP assay, 1536-well qHTS format (primary and confirmatory screen)
- Type: binding
- measurementParameters: Table S3, confirmatory screen; read-out: IC50 [μM] (confirmatory screen)
Doc: threshold 40 µM (exclusive). Items with IC50 beneath it return Satisfied; others return Not satisfied.

Regarding CCCCCCCCn1cc(CC(N)=O)c2cc(-c3cccc(C)c3)ccc21.O=C(O)C(F)(F)F [NCGC00348156-02] , kindly confirm whether its IC50 is beneath 40 µM. Not satisfied

Lab note: confirm whether the reported IC50 for this molecule is below 40 µM, equality not counting. molecule: CC(O)C(=O)O.CCOc1ccc2nc3cc(N)ccc3c(N)c2c1.O [NCGC00096056-02] Satisfied

Strictly below 40 µM: is that where IC50 of O=C(c1cc(O)c(O)c(O)c1)c1ccc(O)c(O)c1O [NCGC00249050-02] sits? Satisfied

Hi there! Is IC50 for CN1CCCN(C(=O)c2cccc(-c3ccc(/C=C4/C(=O)Nc5ccc(Cl)cc54)o3)c2)CC1 [NCGC00346935-01] below 40 µM, do you know? Satisfied

Dear reviewer, please state whether COc1ccc2[nH]c([S+]([O-])Cc3ncc(C)c(OC)c3C)nc2c1 (centres unmarked) [NCGC00016925-10] has IC50 strictly beneath 40 µM. Satisfied

API: query returns whether the molecule falls strictly under 40 µM in IC50. Query: COc1cccc(CN(C)c2ccc(S(=O)(=O)Nc3nccs3)cc2)c1O.O=C(O)C(F)(F)F [NCGC00318978-01] Not satisfied

###

- measuredOn: GST-CIB1 : F-scrambled peptide (Homo sapiens)
- Construct: made in house; host or cells: BL-21 plus RIL cells (E. coli)
- protocolSummary: FP scrambled-peptide counter screen, 1536-well format
- Format: binding
- measurementParameters: scrambled-peptide counterscreen
testReadout: COUNTERSCREEN Efficacy (%)
Numbers only here, please. The scale is %.

Quick one: COUNTERSCREEN Efficacy (%) for Cc1cc(SCc2sc(-c3ccc(Cl)c(Cl)c3)nc2C)ccc1OCc1nnn[nH]1.O=C(O)C(F)(F)F ? 204

So what does the record say about COUNTERSCREEN Efficacy (%) for CN(C)C(=S)SSC(=S)N(C)C ? 14

Could you tell me which COUNTERSCREEN Efficacy (%) is on file for Cc1cc(=O)oc2cc(SC3=NS(=O)(=O)c4ccccc43)ccc12 ? 115

Return reported COUNTERSCREEN Efficacy (%); argument: CCN(CC)C(=S)SSC(=S)N(CC)CC [NCGC00016000-13, disulfiram, reference compound] -13

Which COUNTERSCREEN Efficacy (%) value belongs to O=C(O)C(F)(F)F.O=S(=O)(Nc1nc2n(n1)C(c1ccccc1)C=C(c1ccc(Cl)cc1)N2)c1ccccc1 (stereo not drawn) ? 10

// lookup COUNTERSCREEN Efficacy (%) for CCc1nnc(NS(=O)(=O)c2ccc(NC(=S)NC(=O)/C=C/c3ccc(F)cc3)cc2)s1 57

Given the compound CC(O)c1ccc(-c2ccc3ncnc(NCc4nccs4)c3c2)o1.O=C(O)C(F)(F)F (stereo not drawn) , what is its reported COUNTERSCREEN Efficacy (%)? 0

Tell me the measured COUNTERSCREEN Efficacy (%) of O=C(CN(c1cccc(Br)c1)S(=O)(=O)c1ccccc1)NN=CC1=CC(=[N+]([O-])O)C=CC1=O.O=C(O)C(F)(F)F , please. -13

// COUNTERSCREEN Efficacy (%) lookup, key: CNC(=S)N/N=C1\C(=O)Nc2ccccc21.O=C(O)C(F)(F)F -28

Report COUNTERSCREEN Efficacy (%) for Cc1ccccc1S(=O)(=O)Nc1cnccc1C(=O)Nc1nc(-c2ccccc2)cs1.O=C(O)C(F)(F)F please. 10

I'd like to know its COUNTERSCREEN Efficacy (%). The compound in question is N#Cc1ccc(N2N=C3c4ccc(C(=O)O)cc4CC[C@@H]3[C@@H]2C2CCCC2)cc1Cl 165

Record request: COUNTERSCREEN Efficacy (%) value, item COc1ccc(CNC(=O)c2nc(S(=O)(=O)Cc3ccccc3)ncc2Cl)cc1.O=C(O)C(F)(F)F -18

Report COUNTERSCREEN Efficacy (%) for Cc1ccc(S(=O)(=O)Nc2cnccc2C(=O)Nc2nc(-c3ccc(C)c(C)c3)cs2)cc1.O=C(O)C(F)(F)F please. 17

Which COUNTERSCREEN Efficacy (%) reading was recorded for the compound O=C(Nc1nc(-c2ccccc2)cs1)c1ccncc1NS(=O)(=O)c1ccccc1Cl.O=C(O)C(F)(F)F ? 25

Entry under review: CCC(OC(=O)c1ccc(S(C)(=O)=O)c([N+](=O)[O-])c1)C(=O)NC1C2CC3CC(C2)CC1C3 (stereo not drawn) . Reported COUNTERSCREEN Efficacy (%)? -50

###

- measuredOn: CIB1 and αIIb interaction (CIB1-GST : F-αIIb peptide) (Homo sapiens)
- Construct: made in house; host or cells: BL-21 plus RIL cells (E. coli)
- protocolSummary: FP assay, 1536-well qHTS format (primary and confirmatory screen)
- Format: binding
- measurementParameters: confirmatory screen
Param label: returns y when Efficacy (%) (confirmatory screen) < -80%, returns n otherwise, including exact equality.

Input CN(C(=O)CN(CCO)CC(=O)N(C)C(C)(C)Cc1ccccc1)C(C)(C)Cc1ccccc1 ; condition: Efficacy (%) (confirmatory screen) strictly below -80%. Does it hold? n

For this compound, is Efficacy (%) (confirmatory screen) lower than -80%? Cc1cccc(C(=O)c2no[n+]([O-])c2C(=O)c2cccc(C)c2)c1.O=C(O)C(F)(F)F n

Is -80% strictly greater than the compound's reported Efficacy (%) (confirmatory screen)? compound: CC1(C)OB(c2ccc(O)c3ncc(N4CCNCC4)cc23)OC1(C)C.O=C(O)C(F)(F)F y

Check if Efficacy (%) (confirmatory screen) falls below -80% for Cc1coc2c1C(=O)C(=O)c1c-2ccc2c(C)cccc12 . y

Lab note: confirm whether the reported Efficacy (%) (confirmatory screen) for this compound is below -80%, equality not counting. compound: CCN1C(=O)c2ccccc2[S+]([O-])c2ccc(C(=O)NCc3cccc(F)c3)cc21 (stereo not shown) n

Efficacy (%) (confirmatory screen) under -80%? Item: Oc1ccc(Cl)cc1Cc1cc(Cl)ccc1O n

###

- measuredOn: CIB1 and αIIb interaction (CIB1-GST : F-αIIb peptide) (Homo sapiens, UniProt Q99828)
- Construct: made in house; host or cells: BL-21 plus RIL cells (E. coli)
- protocolSummary: FP assay, 1536-well qHTS format (primary and confirmatory screen)
- Type: binding
- measurementParameters: qHTS primary screen hits, Table S2; read-out: IC50
testReadout: log10(IC50) (log10 of the value in µM)
Short version: log10 scale, IC50, µM.

Report log10(IC50) for Cc1ccc(S(=O)(=O)Nc2cnccc2C(=O)Nc2nc(C(=O)O)cs2)cc1.O=C(O)C(F)(F)F tested on CIB1 and αIIb interaction (CIB1-GST : F-αIIb peptide) (Homo sapiens, UniProt Q99828). 1.70

Recall the recorded log10(IC50) for COc1ccc(Nc2cc(C)nc(-n3nc(C)cc3C)n2)cc1Cl.O=C(O)C(F)(F)F with CIB1 and αIIb interaction (CIB1-GST : F-αIIb peptide) (Homo sapiens, UniProt Q99828) and state it. 1.70

Provide the documented log10(IC50) with CIB1 and αIIb interaction (CIB1-GST : F-αIIb peptide) (Homo sapiens, UniProt Q99828) as the system for O=C(CN(c1cccc(Br)c1)S(=O)(=O)c1ccccc1)NN=CC1=CC(=[N+]([O-])O)C=CC1=O.O=C(O)C(F)(F)F 1.25

Lookup: log10(IC50) / CIB1 and αIIb interaction (CIB1-GST : F-αIIb peptide) (Homo sapiens, UniProt Q99828) / COc1ccc(NS(=O)(=O)c2ccc(N)cc2)nn1 1.60

What value of log10(IC50) on CIB1 and αIIb interaction (CIB1-GST : F-αIIb peptide) (Homo sapiens, UniProt Q99828) does Cc1ccccc1C(=O)N1CCc2cc(-c3nc(NC(=O)Cc4cccc(OCCOCCOCCN)c4)sc3C)ccc21.O=C(O)C(F)(F)F have? 1.70

Fill in the recorded log10(IC50) for this molecule, with CIB1 and αIIb interaction (CIB1-GST : F-αIIb peptide) (Homo sapiens, UniProt Q99828) as test system: O=c1[nH]sc2cc(Cl)ccc12 [NCGC00262908-01, ticlatone, reference compound] 0.54

Record lookup: for CIB1 and αIIb interaction (CIB1-GST : F-αIIb peptide) (Homo sapiens, UniProt Q99828), what log10(IC50) belongs to CCNC(=O)c1ccc(-c2ccc3ncnc(N4CCOCC4)c3c2)o1.O=C(O)C(F)(F)F ? 1.45

Checklist item: log10(IC50) tested on CIB1 and αIIb interaction (CIB1-GST : F-αIIb peptide) (Homo sapiens, UniProt Q99828), entry O=C(CS)Nc1ccccc1 , value? 1.95

CIB1 and αIIb interaction (CIB1-GST : F-αIIb peptide) (Homo sapiens, UniProt Q99828) / log10(IC50) / O=C(Nc1ccc(S(=O)(=O)N2CCOCC2)cc1)c1ccc(CN2CCCc3ccccc32)cc1.O=C(O)C(F)(F)F : value? 1.70

For CIB1 and αIIb interaction (CIB1-GST : F-αIIb peptide) (Homo sapiens, UniProt Q99828), provide log10(IC50) of Cc1ccc(S(=O)(=O)Nc2cnccc2C(=O)Nc2nc(-c3ccccc3)cs2)cc1.O=C(O)C(F)(F)F please. 1.44

Missing value: log10(IC50), CIB1 and αIIb interaction (CIB1-GST : F-αIIb peptide) (Homo sapiens, UniProt Q99828), entry CC(C)COc1ccc(-c2ccc(=O)n(CC(=O)NCCc3ccccc3)n2)cc1.O=C(O)C(F)(F)F . Fill in? 1.75

Form: Entry = O=C(O)C(F)(F)F.OCc1ccc(-c2ccc3ncnc(NCc4cccs4)c3c2)o1 | System = CIB1 and αIIb interaction (CIB1-GST : F-αIIb peptide) (Homo sapiens, UniProt Q99828) | log10(IC50) = ____ 1.40

Kindly state the measured log10(IC50) obtained for CC(=O)NC(c1ccco1)c1cc(F)c2cccnc2c1O (stereo not shown) with CIB1 and αIIb interaction (CIB1-GST : F-αIIb peptide) (Homo sapiens, UniProt Q99828). 1.90

Please tell me: log10(IC50) of Nc1nc2c(s1)C(c1ccccc1Cl)CC(O)=N2 (stereo not shown) , system CIB1 and αIIb interaction (CIB1-GST : F-αIIb peptide) (Homo sapiens, UniProt Q99828)? 1.73

Request - read-out log10(IC50) | tested on CIB1 and αIIb interaction (CIB1-GST : F-αIIb peptide) (Homo sapiens, UniProt Q99828) | molecule O=C1C(SCCO)=C(SCCO)C(=O)c2ccccc21 1.65

Tell me reported log10(IC50) for CC/C(=C(/CC)c1ccc(O)cc1)c1ccc(O)cc1 , tested with CIB1 and αIIb interaction (CIB1-GST : F-αIIb peptide) (Homo sapiens, UniProt Q99828). 1.63
